Consider the following molecules and their measured Growth Rate readings.
test system: Fibroblast; assay: Incucyte cell viability with human fibroblast; format: toxicity, cell-based; details: 24 h, 10 µM, compound concentration 10 uM, replicate number 2; note: unitless GR value; below 1 slowed growth and below 0 cell loss
value-type: Growth Rate

1. Nc1ncc2c(n1)-c1c([nH]c3ccc(C4=CCOCC4)cc13)CCC2 : 0.71
2. O=C(Nc1snnc1C(=O)Nc1ccc(N2CCCC2)cc1)c1cncc(C(F)(F)F)c1 : 0.59
3. CC1CCN(C(=O)[C@H](CCn2cccc2C#N)NS(=O)(=O)c2cccc3[nH]ccc23)CC1 : 0.84
4. Oc1c(CN2CCCC2)cc(COCc2ccccc2)c2cccnc12 : 0.6
5. C[C@@]1(Cc2ccc(C#N)cc2)C(=O)N(c2cc(Cl)cc(Cl)c2)c2ncc(C(=O)NC3(c4nc(C5CCC5)no4)CC3)n21 [BI 9446] : 0.41
6. c1ccc2c(-c3coc4cc(-c5ccc(N6CCNCC6)cc5)cnc34)ccnc2c1 : 0.11
7. Cc1c(NC(=O)COc2ccc(Cl)cc2C(=O)c2cc(F)cc(C(F)(F)F)c2)ccc(C(=O)O)c1F [BI 2540] : 0.97
8. CC(C)c1ccc(/C=N/NC(=O)c2ccc(O)cc2)cc1 : 0.46
9. C[C@@H](NC(=O)Cc1ccc(C2CC2)cc1)c1ccc(OCC(F)(F)F)cn1 : 0.89
